target: T1, monovalent hVISTA-ECD (human VISTA extracellular domain with His tail) (human, UniProt Q9H7M9 33-193); experiment: SPR, pH 7.4
T1 construct: analyte flowed over captured antibody; also called huVISTA-His
T1 sequence (Q9H7M9 other isoform, or with tags, fused parts or gaps limits assumed): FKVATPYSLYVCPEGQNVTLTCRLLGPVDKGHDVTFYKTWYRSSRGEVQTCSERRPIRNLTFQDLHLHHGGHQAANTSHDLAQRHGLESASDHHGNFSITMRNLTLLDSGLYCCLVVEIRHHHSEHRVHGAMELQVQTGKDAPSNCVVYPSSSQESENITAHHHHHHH
Quick reference: kon of the listed items.
measurement_label: kon (M⁻¹ s⁻¹)

binder="P1-064391 (41F11_HC_Mutant: D31E/Y50W/S55E/Y100E 41F11_LC_Mutant: V29D/A64G/R91T) (antibody, V domains shown, Kabat positions; also called P1-064391-1) VH: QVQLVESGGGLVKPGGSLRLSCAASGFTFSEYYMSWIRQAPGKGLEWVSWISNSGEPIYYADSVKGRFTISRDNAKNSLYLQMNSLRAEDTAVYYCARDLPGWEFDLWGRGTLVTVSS VL: EIVLTQSPATLSLSPGERATLSCRASQSDSSYLAWYQQKPGQAPRLLIYDASNRATGIPARFSGSGSGTDFTLTISSLEPEDFAVYYCQQTNNWPRTFGQGTKVEIK" measurement_label=kon quantitative_result=430000
binder="P1-064510 (41F11_Vk_A25E/V29D/A64G/R91T) (antibody, V domains shown, also called P1-064510-1) VH: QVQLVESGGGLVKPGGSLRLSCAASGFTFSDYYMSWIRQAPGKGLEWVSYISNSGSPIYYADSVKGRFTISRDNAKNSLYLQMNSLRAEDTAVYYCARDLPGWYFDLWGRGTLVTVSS VL: EIVLTQSPATLSLSPGERATLSCRESQSDSSYLAWYQQKPGQAPRLLIYDASNRATGIPARFSGSGSGTDFTLTISSLEPEDFAVYYCQQTNNWPRTFGQGTKVEIK" measurement_label=kon quantitative_result=150000
binder="P1-063125 (41F11_HC_Mutant: T28P/Y50W/S55E/Y100E) (antibody, V domains shown, Kabat positions; also called P1-063125-5) VH: QVQLVESGGGLVKPGGSLRLSCAASGFPFSDYYMSWIRQAPGKGLEWVSWISNSGEPIYYADSVKGRFTISRDNAKNSLYLQMNSLRAEDTAVYYCARDLPGWEFDLWGRGTLVTVSS VL: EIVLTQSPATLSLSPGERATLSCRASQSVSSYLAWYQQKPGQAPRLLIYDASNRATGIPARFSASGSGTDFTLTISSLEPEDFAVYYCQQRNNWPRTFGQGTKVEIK" measurement_label=kon quantitative_result=770000
